System: MS2 coat protein
Assay: apparent KD of MS2 coat protein; designed switch direction (-1 OFF switch, 1 ON switch): -1; higher = weaker reporter binding
Settings: Eterna round: R95; input ligand: FMN 200 uM
measured_endpoint: apparent KD of MS2 coat protein

AAGUACUACAAGCUUCGGGACAUGAGGAUCACCCAUGUUCGUCUUAUUGAUCUAGGUACGCUGACGUACCUAGAUCA [Mat - Sensor v3 - turn-off var 1 - JL Mod - D12] (puzzle: Sensor v3, turn-off variant 1) : 0.0149 µM
GUUAAACAUGAGGAUCACCCAUGUAAGGAUAUGCUGCGGUCGAGAUGAAGUGACUGCAGCAGAAGGUACAAAUG [Mat - Mod of JL D60] (puzzle: Exclusion 1) : 0.162 µM
GGUCGGCGAGGAUAUACAUGAGGAUCACCCAUGUGAUAGAGUGCACGAAAACGUGUACGUAGAAGGCGCUGACG [Mat - Exclusion 3 - Mod of JL D96] (puzzle: Exclusion 3) : 0.0295 µM
CUCUUGUCAGGAUAUCAACGCCAUCCACAUGGACGGCGAAAUGAGAAGGGACAUGAGGAUCACCCAUGUUAAAA [Xeveleqube] (puzzle: Exclusion 4) : 0.0273 µM

Field: next sequence
GUGUAACUACACGGGCUCAACAUGAGGAUCACCCAUGUCAUACACGCAAGCUUUUUGCUUGUCUUAUCAGUCCGUGA [Rereerdiin] (puzzle: Sensor v3, turn-off variant 1) has a reported apparent KD of MS2 coat protein of 0.013 µM

---

System: MS2 coat protein
Assay: apparent KD of MS2 coat protein; designed switch direction (-1 OFF switch, 1 ON switch): -1; higher = weaker reporter binding
Details: Eterna round: R95; input ligand: FMN 200 uM
Task for the reader: assign each of the following sequences its reported apparent KD of MS2 coat protein.
Numbers only, in nM.

For orientation, consider the following solved cases.
UAUACACAUGAGGAUCACCCAUGUGAGGAUAUGUACAACAACAAGACGGAAAAAAAAUACAGAAGGCACAAAUA [JR_Exclusion1_Sub028] (puzzle: Exclusion 1) : 22.7
GGUUGUUUUUUCCUUUCUUACAUGAGGAUCACCCAUGUUUCUUGUCGUGCUCGCGUUGCUCGUCUGUCUGUCUGUUG [salish99_TOv1_r3_074] (puzzle: Sensor v3, turn-off variant 1) : 49.9

Hello, I would appreciate it if you could give apparent KD of MS2 coat protein for each entry below.
1. AACUAGGCAGGAUAUACAUGAGGAUCACCCAUGUGCCGAUACAAAGGGACUAACAGAGGUAGAAGGGCCUAGAA [ChP 13.04.2015 #1] (puzzle: Exclusion 3)
2. GAAAAGGGAGGAUAUACAAGAAGAAAAGAAAAGAAAAGAAAACAUGAGGAUCACCCAUGUAGAAGGCCCAAAAG [Default title] (puzzle: Exclusion 2)

Outgoing:
1: 100; 2: 22.6

---

System: MS2 coat protein
Test: apparent KD of MS2 coat protein; higher = weaker reporter binding
Details: Eterna round: R107; input ligand: theophylline 2 mM
Please mark t if the recorded apparent KD of MS2 coat protein is equal to or greater than 40 nM, and f if it falls below.

// below: answered sequences
UAAUAGAUUACGGCCGCCACUGAAGUGGACUUUAUGAGCAGGAUUCACAUGAGGAUCACCCAUGUCAGGACCGGGUACGUCCAUA [theeternabot_exclusion_MS2_Trp_B_33] : t
AGAUGUAGCGGAAGGAGCGACAAGAGGAUCACCCUUGUCUCCCGUUGUGGGAGUUCCUUAGGUCAGGUAGGUCGCCGUUACGUCA [Omei Arg B SS B v4] : f
CACAUGAGGAUCACCCAUGUCUGAACUGAAGGAGCGCUAAACAAGGCAGGUAGGUCGCGGAAUCUUGUGUGCAUAUGCACACGGG [9.S] : f

Incoming: Decide: apparent KD of MS2 coat protein of CCAUUGAUGACGGCCGCCACUGUCUACAUGAGGAUCACCCAUGUAUAGCAGGGUGGACCUAUGGACAGGACCGGGUCACUUGUCC [Tryp B Ex t7] >= 40 nM?
Outgoing: f

Incoming: Decide: apparent KD of MS2 coat protein of CACAAUUUGUCGGCCGCCACUAAGGUAACUUUUCUCACAUGAGGAUCACCCAUGUGCCCGAAACUUAGGACCGGGAUAAUGGGUG [Usteraor] >= 40 nM?
Outgoing: t

Incoming: Decide: apparent KD of MS2 coat protein of AAUAAUAAGGCGGCCGCCACUACACAUGAGGAUCACCCAUGUCUCGCGGGCUUGCGUUGGGAAUGUAGGACCGGGCCAAUAAUAA [Exclusion - Tryptophan B (Freestyle 10)] >= 40 nM?
Outgoing: f
